Data origin, for the record: patent USRE39591E1

# Tested on: up to 32 different microorganisms
# PROTOCOL_DESCRIPTION: in vitro antibacterial activity (MIC), agar dilution on Brain Heart Infusion (BHI) agar with Steers replicator
# Assay type: cell-based
# DETAILS: Streptococcus Pneumonia 5649 (code ZZA); unit assumed
REPORTED_METRIC: MIC (µg/mL)
Kindly provide the numeric value in µg/mL only, without the unit symbol.

compound="C=CCOC1(C)CC(C)C(=O)C(C)C2N(CC=C)C(=O)OC2(C)C(CC)OC(=O)C(C)C(=O)C(C)C1OC1OC(C)CC(N(C)C)C1O (stereo not drawn)" tested_system="up to 32 different microorganisms" measured_result=2
compound=CC[C@H]1OC(=O)[C@H](C)C(=O)[C@H](C)[C@@H](O[C@@H]2O[C@H](C)C[C@H](N(C)C)[C@H]2O)[C@@](C)(OCC=Cc2ccccc2)C[C@@H](C)C(=O)[C@H](C)[C@@H](O)[C@]1(C)O tested_system="up to 32 different microorganisms" measured_result=2

# ---- query compound ----
*Q* Report MIC for `CC[C@H]1OC(=O)[C@H](C)C(=O)[C@H](C)[C@@H](O[C@@H]2O[C@H](C)C[C@H](N(C)C)[C@H]2O)[C@@](C)(OCC=Cc2ccc(F)cc2)C[C@@H](C)C(=O)[C@H](C)[C@@H](O)[C@]1(C)O` please.
*A* 2
